For each of the molecules below, state its C-CompZ, compositeZ score for cell viability assay.
- Tested on: Huh7/Rep-Feo cells
- Procedure details: Primary HTS cell viability counter-screen (CellTiterGlo)
- Assay type: cell-based, human
- Experimental conditions: Table 2 antiviral hits of DOS set; approximately 10-50 μM, most at 33 μM; 48 hours
Numbers only.

Worked cases, C-CompZ, compositeZ score for cell viability assay given:
Molecule | Assay target | Observed measurement
C[C@H](O/N=C1/[C@H]2CCn3c(=O)n(-c4ccccc4)c(=O)n3[C@H]2[C@H](O)[C@@H]2O[C@H]12)c1cn([C@H](CO)Cc2ccccc2)nn1 [BUCMLD-B10A10] | Huh7/Rep-Feo cells | 1.9213
C[C@@]12COC[C@]13C=C(Br)C(C2)[C@@]1(CO1)C3=O [SM_A7C2_2P155] | Huh7/Rep-Feo cells | 0.6028
CC(=O)OC[C@H]1O[C@H](CCO/N=C2/[C@H]3CCn4c(=O)n(-c5ccccc5)c(=O)n4[C@H]3[C@H](O)[C@@H]3O[C@H]23)C=C[C@@H]1OC(C)=O [BUCMLD-B10A3] | Huh7/Rep-Feo cells | −1.8907
COc1ccc(O[C@H]2C=C[C@@H](c3ccccc3)O[C@@H]2CO/N=C(\C)CCN2CCc3nc(-c4ccccc4)c(-c4ccccc4)cc3C2)cc1 [BUCMLD-B13A1] | Huh7/Rep-Feo cells | −0.2035
C#CCCCO/N=C1/[C@H]2CCn3c(=O)n(-c4ccccc4)c(=O)n3[C@H]2[C@H](O)[C@@H]2O[C@H]12 [BUCMLD-XL-184] | Huh7/Rep-Feo cells | −0.1464

Consider now this further molecule.
IN: // lookup C-CompZ, compositeZ score for cell viability assay for O=C1C2C=C(I)C(CC2c2ccccc2)[C@@]12CO2 (stereo partly drawn) [SM_A5B5_2P118]
OUT: −0.4963
